Reported growth values for a set of compounds
test system: HS 578T breast; experiment: NCI-60 one-dose screen, 48 h (100 = growth as untreated, 0 = no growth, -100 = all killed); conditions: 10 µM unless noted
This is part of a sample that, as a whole, favours compounds with a hit. Of some 83,000 tested, about 20% had one in any assay.
Could you give me the number in %? Just the number is fine.

// solved cases for growth follow
compound	growth [%]
COC(=O)c1cc(C(=O)OC)cc([N+](=O)[O-])c1	103
COC(=O)C(Cc1cn(C(C)=O)c2ccccc12)P(=O)(OC)OC (stereo not drawn)	94.2

Query compound follows.
Q) Supply recorded growth for "O=C1c2ccccc2CN1c1ccccc1" here.
A) 115

###

tested on: MALME-3M melanoma; experiment: NCI-60 one-dose screen, 48 h (100 = growth as untreated, 0 = no growth, -100 = all killed); settings: 10 µM unless noted
The panel holds about 83,000 compounds, 20% with a hit somewhere; the sample as a whole holds those more often.
reported metric: growth (%)
Could you give me the number in %? Just the number is fine.

compound	unit of measure	growth
CCNC1=CC(=O)c2ncccc2C1=O	%	-84.6
CC(C)(C)OC(=O)CC1(O)CCCCC1	%	117
O=C(N=C1C(=O)C2(CCCCC2)C2(N=C(c3ccccc3)OC2=O)C12CCCCC2)c1ccccc1 (stereo not drawn)	%	77.6
NCCSSC/C=C\CSSCCN	%	103
COc1ccc(CCNC(=S)NN)cc1OC	%	124

Q) Supply recorded growth for C/C(=C\c1ccccc1)C(O)C(=O)c1nc2ccc([N+](=O)[O-])cc2[nH]c1=O (stereo not drawn) here.
A) 109

Q) Supply recorded growth for CC1NC(C)c2ccc3ccccc3c2O1 (stereo not drawn) here.
A) 119

Q) Supply recorded growth for "O=C(O)Cc1cc(=O)[nH]n(-c2ccccc2)c1=O" here.
A) 113

###

tested on: NCI-H23 lung; assay: NCI-60 one-dose screen, 48 h; conditions: 10 µM unless noted
About 83,000 compounds went through this panel and 20% of them were active in at least one assay; those are over-represented in the sample as a whole. Active and inactive are the calls of the source. Rule for the calls: active = growth percent below 10; inactive = the rest.
Response enum: active, inactive

compound	answer label
CCOP(=O)(OCC)/C(C#N)=C/c1c(C)[nH]c2ccccc12	inactive

Q) Each compound tested received a call. Report the one for "COC(=O)CCOc1ccccc1" .
A) inactive

Q) Each compound tested received a call. Report the one for CC(C)=NOC(C)C(=O)O (stereo unspecified) .
A) inactive

###

Reported growth values for a set of compounds
system: SW-620 colon; test: NCI-60 one-dose screen, 48 h (100 = growth as untreated, 0 = no growth, -100 = all killed); conditions: 10 µM unless noted
About 83,000 compounds went through this panel and 20% of them were active in at least one assay; those are over-represented in the sample as a whole. Activity calls are given as the source filed them. Rule for the calls: active = growth percent below 10; inactive = the rest.

// solved cases for growth follow
mol	growth
C/C(CC(C)C)=N/NC(N)=S	85.4% (inactive)
O=C1c2cccnc2-c2ncccc21	109% [100 µM] (inactive)
N=c1sc2ccccc2n1CC(=O)O	103% (inactive)

Q) Supply recorded growth for "Cc1c(O)nc(N)[nH]c1=O" here.
A) 102% (inactive)

Q) Supply recorded growth for "CC1(C)CC(=O)NC1=O" here.
A) 107% (inactive)

###

system: UACC-257 melanoma; assay: NCI-60 one-dose screen, 48 h (100 = growth as untreated, 0 = no growth, -100 = all killed); conditions: 10 µM unless noted
The panel holds about 83,000 compounds, 20% with a hit somewhere; the sample as a whole holds those more often. Activity calls are given as the source filed them. The calls were made as follows: active = growth percent below 10; inactive = the rest.
Reported growth values for a set of compounds

// solved cases for growth follow
compound	growth
Oc1ccc(O)c(-c2ccccc2)c1	88.4% (inactive)
CCOC(=O)c1ccc(C(=N)N)cc1	96.8% (inactive)
CSc1nc(N)c(N)c(N)n1	96.9% (inactive)
CCNCc1ccccc1	102% (inactive)
CCN(CC)C(=S)SCCO	96.3% (inactive)

Q) Supply recorded growth for "COc1ccc(COC=O)cc1" here.
A) 98.5% (inactive)

Q) Supply recorded growth for O=C(c1ccc(Cl)cc1)C1C(c2ccccc2)C1[N+](=O)[O-] (stereo not given) here.
A) 105% (inactive)

Q) Supply recorded growth for CC1(CO)CCCC1NCCNC1CCCC1(C)CO (stereo not given) here.
A) 100% (inactive)

Q) Supply recorded growth for "O=C(O)c1cc(=O)[nH]c(=O)[nH]1" here.
A) 103% (inactive)

Q) Supply recorded growth for "NNC(=O)Nc1ccccc1" here.
A) 108% (inactive)

Q) Supply recorded growth for "Cc1c(Cl)cc(Cl)c(N)c1Cl" here.
A) 106% (inactive)

###

tested on: UO-31 renal; assay: NCI-60 one-dose screen, 48 h (100 = growth as untreated, 0 = no growth, -100 = all killed); conditions: 10 µM unless noted
The panel holds about 83,000 compounds, 20% with a hit somewhere; the sample as a whole holds those more often.
Reported growth values for a set of molecules
Could you give me the number in %? Just the number is fine.

molecule	assay system	unit of measure	growth
OCCS	UO-31 renal	%	98
C#CCOC(=O)C(N)CS (stereo not drawn)	UO-31 renal	%	82.5

Q) Supply recorded growth for "N=c1sc2ccccc2n1CC(=O)O" here.
A) 86.4

###

tested on: HCC-2998 colon; assay: NCI-60 one-dose screen, 48 h (100 = growth as untreated, 0 = no growth, -100 = all killed); details: 10 µM unless noted
Compounds without any hit were thinned out: in the full panel of roughly 83,000, 20% have a hit.
Reported growth values for a set of compounds
Could you give me the number in %? Just the number is fine.

mol	assay system	growth, %
CCN(C)c1ccccc1	HCC-2998 colon	107
OCc1ccccc1F	HCC-2998 colon	93.2
CCc1ccccc1-n1[nH]c(C)c(C=N)c1=O	HCC-2998 colon	118
COc1ccc2oc3c(ccc[n+]3C)c(=O)c2c1	HCC-2998 colon	117
C/C=C/C(=O)OCCCCCCCCCCCC	HCC-2998 colon	130
O=[N+]([O-])c1cccc(N=Cc2ccccc2)c1	HCC-2998 colon	103
Cc1cc2nc3ccc(=[N+](C)C)cc-3sc2cc1N	HCC-2998 colon	18.8
Nc1c(Cl)cc2c(c1Br)C(=O)c1ccccc1C2=O	HCC-2998 colon	101

Q) Supply recorded growth for "O=C(O)/C=C/C=C/c1ccccc1" here.
A) 104

###

system: SK-OV-3 ovarian; assay: NCI-60 one-dose screen, 48 h; conditions: 10 µM unless noted
This is part of a sample that, as a whole, favours compounds with a hit. Of some 83,000 tested, about 20% had one in any assay. Activity calls are given as the source filed them. How the source made its calls: active means growth percent below 10; inactive means the rest.
Response enum: T for active, F for inactive

Check out these entries, answers already filled in.
molecule	answer label
NCCSSC/C=C\CSSCCN	F
CCOc1ccc(/C=C\C(=O)O)cc1	F
OC1CCCN(Cc2ccccc2)C1 (centres undefined)	F
CCN(CC)C(=S)SCCO	F
NNc1ncnc2cccc(Cl)c12	F
CCOP(=O)(OCC)/C(C#N)=C/c1c(C)[nH]c2ccccc12	F

Q) Each molecule tested received a call. Report the one for "OCCS" .
A) F

Q) Each molecule tested received a call. Report the one for "O=[N+]([O-])c1ccc(NC2CCCCC2)nc1" .
A) F

Q) Each molecule tested received a call. Report the one for O=C1C2=C(Nc3cc(Cl)ccc3N2)OC1c1c[nH]c2ccc(COc3ccccc3)cc12 (centres undefined) .
A) F

Q) Each molecule tested received a call. Report the one for "OCCCc1ccccc1" .
A) F

Q) Each molecule tested received a call. Report the one for "NCCCCCC(=O)O" .
A) F

Q) Each molecule tested received a call. Report the one for "CCNC1=CC(=O)c2ncccc2C1=O" .
A) F

Q) Each molecule tested received a call. Report the one for CCCCCCC(C)CC1=C(O)c2ccccc2C(=O)C1=O (centres undefined) .
A) F

Q) Each molecule tested received a call. Report the one for "Oc1ccc(O)c(-c2ccccc2)c1" .
A) F

Q) Each molecule tested received a call. Report the one for "CC(C)(C)OC(=O)CC1(O)CCCCC1" .
A) F

Q) Each molecule tested received a call. Report the one for "C/C(CC(C)C)=N/NC(N)=S" .
A) F

Q) Each molecule tested received a call. Report the one for "O=C1c2ccccc2CN1c1ccccc1" .
A) F

Q) Each molecule tested received a call. Report the one for Nc1ccccc1SC1CC(=O)N(c2ccc(I)cc2)C1=O (centres undefined) .
A) F

###

tested on: TK-10 renal; test: NCI-60 one-dose screen, 48 h (100 = growth as untreated, 0 = no growth, -100 = all killed); conditions: 10 µM unless noted
About 83,000 compounds went through this panel and 20% of them were active in at least one assay; those are over-represented in the sample as a whole.
reported metric: growth (%)
Could you give me the number in %? Just the number is fine.

Q) Supply recorded growth for CC1(CO)CCCC1NCCNC1CCCC1(C)CO (stereo not drawn) here.
A) 108

Q) Supply recorded growth for CN1C2C=CC(=O)C1C1C(=O)N(c3ccccc3)C(=O)C12 (stereo not drawn) here.
A) 78.9

Q) Supply recorded growth for "O=C(O)C#Cc1ccc(Cl)cc1" here.
A) 109

Q) Supply recorded growth for CC(NC(=O)CCl)c1ccccc1 (stereo not drawn) here.
A) 98.8

Q) Supply recorded growth for O=[N+]([O-])c1ccc(NC(c2ccccc2)c2ccc3cccnc3c2O)cc1 (stereo not drawn) here.
A) 42.7

Q) Supply recorded growth for "CC(=O)Oc1cc(C)c(OC(C)=O)c(C)c1C" here.
A) 124

Q) Supply recorded growth for "CCN(C)c1ccccc1" here.
A) 107

Q) Supply recorded growth for "O=COCCCc1ccccc1" here.
A) 92.8
